Let's go through some pIC50 measurements on Cell division cycle 7-related protein kinase (Homo sapiens) together.
Sequence (O00311 whole entry): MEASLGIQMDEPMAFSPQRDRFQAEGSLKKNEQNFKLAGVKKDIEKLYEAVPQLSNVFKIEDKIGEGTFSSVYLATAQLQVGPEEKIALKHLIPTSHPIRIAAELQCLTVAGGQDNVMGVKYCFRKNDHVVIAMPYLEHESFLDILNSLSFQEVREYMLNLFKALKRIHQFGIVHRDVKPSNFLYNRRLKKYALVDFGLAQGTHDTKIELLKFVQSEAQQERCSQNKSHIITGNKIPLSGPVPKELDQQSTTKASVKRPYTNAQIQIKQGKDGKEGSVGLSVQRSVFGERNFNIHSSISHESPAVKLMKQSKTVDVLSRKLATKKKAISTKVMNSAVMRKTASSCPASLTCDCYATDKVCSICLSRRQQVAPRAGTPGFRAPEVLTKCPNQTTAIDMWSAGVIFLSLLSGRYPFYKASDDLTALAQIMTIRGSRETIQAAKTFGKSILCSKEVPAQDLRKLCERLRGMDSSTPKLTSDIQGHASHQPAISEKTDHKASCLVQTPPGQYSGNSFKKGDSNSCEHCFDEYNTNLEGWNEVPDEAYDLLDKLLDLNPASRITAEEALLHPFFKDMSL
pIC50: −log10 of the molar value.
readout.kind: pIC50

(1) O=c1nc(-c2ccc3[nH]ncc3c2)cc(-c2cccc(C(F)(F)F)c2)[nH]1
(2) O=c1nc(-c2ccc3[nH]ncc3c2)cc(-c2cccc(OCc3ccccc3)c2)[nH]1
(3) O=c1nc(-c2ccc3[nH]ncc3c2)cc(-c2ccc(OCc3ccccc3)cc2)[nH]1
-- ask Lab note: order the above by reported pIC50, lowest first, highest last. Put the labels in the requested order and write them down.
-- reply 3, 1, 2

---

# test.target: Cell division cycle 7-related protein kinase (Homo sapiens)
# experimental.details: Inhibition of CDC7-DBF4
readout.kind: IC50 (nM)

COc1ccc(-c2cc(-c3ccnc(N)c3)nc(=O)[nH]2)c(OC)c1 = 1000

(P) O=c1nc(-c2ccc3[nH]ncc3c2)cc(-c2cccc(F)c2)[nH]1
(Q) O=c1nc(-c2ccc(O)cc2)cc(-c2ccccc2)[nH]1
(R) O=c1nc(-c2ccc3[nH]ncc3c2)cc(-c2ccccc2F)[nH]1
-- ask Falling order of IC50, please. Put the labels in the requested order and write them down.
-- reply P, Q, R
